# target: D1 receptors (Rattus norvegicus, UniProt P18901)
# Construct: Frozen rat striata was homogenized by seven manual strokes; from tissue; host or cells: rat striatum
# Sequence (P18901 whole entry): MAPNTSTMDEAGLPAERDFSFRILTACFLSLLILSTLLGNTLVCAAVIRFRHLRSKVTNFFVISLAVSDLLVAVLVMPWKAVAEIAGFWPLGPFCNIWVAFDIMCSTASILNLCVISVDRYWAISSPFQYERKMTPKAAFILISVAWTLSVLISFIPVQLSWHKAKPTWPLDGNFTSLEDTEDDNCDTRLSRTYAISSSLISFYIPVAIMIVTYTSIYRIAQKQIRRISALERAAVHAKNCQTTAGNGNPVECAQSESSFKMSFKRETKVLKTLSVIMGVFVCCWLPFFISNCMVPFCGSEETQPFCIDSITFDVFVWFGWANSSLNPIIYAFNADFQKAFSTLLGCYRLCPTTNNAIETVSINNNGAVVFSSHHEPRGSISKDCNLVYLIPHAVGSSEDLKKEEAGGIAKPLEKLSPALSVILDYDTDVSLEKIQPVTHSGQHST
# assayRemarks: cAMP production in rat striatum homogenate
# Assay type: biochemical
# runParameters: rat striatum; read-out: EC50 in stimulating synthesis of cAMP via D1 receptors

>  <molecule>
Br.Oc1ccc2c(c1O)Oc1cccc3c1C2CNC3 (racemic) [dinoxyline, hydrobromide]

>  <EC50>
< 30 nM

$$$$
